Data provenance is ChEMBL document CHEMBL4257556.

# Test system: Calf thymus DNA
# ASSAY REMARKS: Binding affinity to calf thymus DNA after 90 mins by spectroscopic titration method
# Assay type: nucleic-acid assay
# STUDY CONDITIONS: Bos taurus
REPORTED ENDPOINT: Kb (×10³ /M)
Just the number in ×10³ /M, nothing appended.

Prompt: Missing value: Kb, Calf thymus DNA, entry COc1cccc(C(=O)/C=C/c2ccc(C(=O)Nc3nnc(-c4ccc(O)c(O)c4)s3)cc2)c1 . Fill in?
Completion: 0.71

Prompt: Queued: Cc1cccc(C(=O)/C=C/c2ccc(C(=O)Nc3nnc(-c4ccc(O)c(O)c4)s3)cc2)c1
Completion: 0.74

Prompt: Queued: O=C(Nc1nnc(-c2ccc(O)c(O)c2)s1)c1ccc(/C=C/C(=O)c2cccs2)cc1
Completion: 1.01

Prompt: Queued: O=C(/C=C/c1ccc(C(=O)Nc2nnc(-c3ccc(O)c(O)c3)s2)cc1)c1ccccc1
Completion: 1.09

====

Please go through the items and note down their pIC50.
# ASSAY REMARKS: Antioxidant activity assessed as DPPH free radical scavenging activity after 30 mins
# Assay type: functional
Scale for pIC50: -log10 of concentration given in mol/L; no unit attached.

Prompt: Quick one: pIC50 of Cc1cccc(C(=O)/C=C/c2ccc(C(=O)Nc3nnc(-c4ccc(O)c(O)c4)s3)cc2)c1 ?
Completion: 4.77

Prompt: Queued: O=C1O[C@H]([C@@H](O)CO)C(O)=C1O [ASCORBIC ACID]
Completion: 4.69

Prompt: Queued: COc1ccc(C(=O)/C=C/c2ccc(C(=O)Nc3nnc(-c4ccc(O)c(O)c4)s3)cc2)cc1
Completion: 4.75

Prompt: Queued: COc1ccccc1C(=O)C=Cc1ccc(C(=O)Nc2nnc(-c3ccc(O)c(O)c3)s2)cc1
Completion: 5.01

Prompt: Queued: O=C(/C=C/c1ccc(C(=O)Nc2nnc(-c3ccc(O)c(O)c3)s2)cc1)c1ccc(Br)cc1
Completion: 4.74

Prompt: Queued: O=C(/C=C/c1ccc(C(=O)Nc2nnc(-c3ccc(O)c(O)c3)s2)cc1)c1ccc(F)cc1
Completion: 4.75

Prompt: Queued: Cc1ccccc1C(=O)C=Cc1ccc(C(=O)Nc2nnc(-c3ccc(O)c(O)c3)s2)cc1
Completion: 4.93

Prompt: Queued: O=C(/C=C/c1ccc(C(=O)Nc2nnc(-c3ccc(O)c(O)c3)s2)cc1)c1ccccc1
Completion: 4.92

Prompt: Queued: O=C(Nc1nnc(-c2ccc(O)c(O)c2)s1)c1ccc(C=CC(=O)c2ccccc2F)cc1
Completion: 4.86

====

# System: Calf thymus DNA
# ASSAY REMARKS: Displacement of Hoechst 33258 from calf thymus DNA assessed as quenching constant by fluorescence spectrophotometric analysis
# Format: nucleic-acid assay
# STUDY CONDITIONS: Bos taurus
Please go through the items and note down their K.
No unit in the answer, only the number.

Prompt: Quick one: K of Cc1cccc(C(=O)/C=C/c2ccc(C(=O)Nc3nnc(-c4ccc(O)c(O)c4)s3)cc2)c1 ?
Completion: 2.95

Prompt: Queued: O=C(Nc1nnc(-c2ccc(O)c(O)c2)s1)c1ccc(/C=C/C(=O)c2cccs2)cc1
Completion: 4.66

Prompt: Queued: O=C(/C=C/c1ccc(C(=O)Nc2nnc(-c3ccc(O)c(O)c3)s2)cc1)c1ccccc1
Completion: 3.3

Prompt: Queued: COc1cccc(C(=O)/C=C/c2ccc(C(=O)Nc3nnc(-c4ccc(O)c(O)c4)s3)cc2)c1
Completion: 3.95
